# Tested on: HCT-116
# assay name: NCI tumour cell line growth inhibition, 48 h
The source made the active and inactive calls. No stated cut-off is given here; in the data, active = GI50 up to about 1.1 µM and inactive = higher.
Measured GI50, listed per entry.

Answered examples (2):
>>> observed_result("Nc1c(Cl)cc(-c2nc3ccccc3s2)cc1Cl")
"> 100 µM (inactive)"
>>> observed_result("CN(C)C1(c2cc3ccccc3s2)CCCCC1")
"33.9 µM (inactive)"

Notebook: CC(C)=CCC/C(C)=C/CC/C(C)=C/CC/C=C(\C)CC/C=C(\C)CCC1SC1(C)C (configuration not stated) , GI50 read as > 100 µM (inactive)

Notebook: `Oc1ccc2ccccc2c1/C=C/c1ccc2c(Br)cc(Br)c(O)c2n1` , GI50 read as 2.96 µM (inactive)

Notebook: `NC(C(F)(F)F)(C(F)(F)F)P(=O)(Cc1ccccc1)Cc1ccccc1` , GI50 read as > 100 µM (inactive)

Notebook: `C[N+]1(C)CC=C(N2CCOCC2)CC1` , GI50 read as > 10 µM (inactive)

Notebook: CN(Cc1cnc2nc(N)nc(N)c2n1)c1ccc(C(=O)NC(CCC(=O)NCC(P(=O)(O)O)P(=O)(O)O)C(=O)O)cc1 (configuration not stated) , GI50 read as 0.815 µM (active)

Notebook: COC(=O)C1=C(O)C(C(=O)OC)[C@]2(O)[C@H](C(=O)OC)[C@H]1C[C@@H](c1ccc(Cl)cc1)[C@H]2C(=O)OC (some centres not stated) , GI50 read as 5.28 µM (inactive)

Notebook: CC(=O)NC1C(OCc2ccccc2)OC(CO)C(O)C1OC(C)C(=O)NC(C)C(=O)NC(CCC(=O)NCCCNc1c2ccccc2nc2cccc([N+](=O)[O-])c12)C(N)=O (configuration not stated) , GI50 read as 0.263 µM (active)

Notebook: N#CC12Cc3cc4c(cc3-c3cccc(c31)CCN2C(=O)c1ccccc1)OCO4 (configuration not stated) , GI50 read as > 100 µM (inactive)

Notebook: `COc1ccccc1-c1nc[nH]c1-c1ccccc1OC` , GI50 read as 31.8 µM (inactive)

Notebook: `Cc1ccc2c(ccc(/C=C/c3ccc(O)c4ncccc34)[n+]2C)c1` , GI50 read as 3.87 µM (inactive)

Notebook: `COc1ccc(NC(=O)CC/C(CC(=O)c2ccco2)=N/Nc2ccc([N+](=O)[O-])cc2[N+](=O)[O-])cc1` , GI50 read as 76.2 µM (inactive)

Notebook: `CCN(CC)CCNc1ccc([N+](=O)[O-])c2nc3ccccc3c(N)c12` , GI50 read as 0.127 µM (active)

Notebook: `COc1cc2c(cc1O)[C@@H]1Cc3c(cc(OC)c(OC)c3Oc3cc4c(cc3OC)CCN(C)[C@@H]4Cc3ccc(O)cc3)[C@H](C2)N1C` , GI50 read as 48.1 µM (inactive)

Notebook: CC(Br)C(=O)c1ccc2cc(Br)c3ccccc3c2c1 (configuration not stated) , GI50 read as 15.2 µM (inactive)

Notebook: Cc1c(N)nc(C(CC(N)=O)NCC(N)C(N)=O)nc1C(=O)NC(C(=O)NC(C)C(O)C(C)C(=O)NC(C(=O)NCCc1nc(-c2nc(C(=O)NCCCNC(C)c3ccccc3)cs2)cs1)C(C)O)C(OC1OC(CO)C(O)C(O)C1OC1OC(CO)C(O)C(OC(N)=O)C1O)c1c[nH]cn1 (configuration not stated) , GI50 read as 0.328 µM (active)

###

# Test system: U-251
# assay name: NCI tumour cell line growth inhibition, 48 h
Active and inactive are the calls of the source. Cut-off read from the data, not from the text of the source: active = GI50 up to about 1.1 µM and inactive = higher.
attribute measured: GI50

>>> observed_result("CCCCC1C(=O)N(c2ccc(S(=O)(=O)Nc3ccccn3)cc2)N(c2ccc(O)c(C(=O)O)c2)C1=O (stereo unspecified)")
"> 100 µM (inactive)"
>>> observed_result("O=c1c2ncn(CCCl)c2n(-c2ccccc2)c(=S)n1-c1ccccc1")
"> 100 µM (inactive)"
>>> observed_result("O=C(CCc1nnc2s/c(=C\\c3ccccc3)c(=O)n12)Nc1cc(Cl)ccc1Cl")
"> 100 µM (inactive)"
>>> observed_result("N#CC(C#N)=Cc1ccc(CP(=O)(O)O)cc1")
"> 100 µM (inactive)"
>>> observed_result("Cc1nc(C)c(N2CCN(CN)CC2)c(O)n1")
"56.8 µM (inactive)"

Notebook: `CCSc1nc2n(c(=S)n1)CCN2C` , GI50 read as 19.8 µM (inactive)

###

# Test system: UACC-257
# assay name: NCI tumour cell line growth inhibition, 48 h
Active and inactive are the calls of the source. Cut-off read from the data, not from the text of the source: active = GI50 up to about 1.1 µM and inactive = higher.
Measured GI50, listed per entry.

>>> observed_result("C/C=C1\\CN2CCc3c([nH]c4ccccc34)C2CC1CCO (stereo not given)")
"> 100 µM (inactive)"
>>> observed_result("COc1nc(C#CC2(O)CCCCC2)nc(OC)n1")
"14.6 µM (inactive)"

Notebook: `CCCCNC(=S)N/C=C1\C(=O)Oc2ccccc2C1=O` , GI50 read as > 100 µM (inactive)

Notebook: `COC(=O)c1c(C#C[Si](C)(C)C)c(C#C[Si](C)(C)C)c(C#C[Si](C)(C)C)c(C#C[Si](C)(C)C)c1C(=O)OC` , GI50 read as > 100 µM (inactive)

Notebook: `O=C1CC(=O)N(C2CCCCC2)C(=O)N1c1ccccc1S(=O)(=O)Oc1ccccc1` , GI50 read as > 100 µM (inactive)

###

# Tested on: OVCAR-5
# assay name: NCI tumour cell line growth inhibition, 48 h
Activity calls are given as the source filed them. Rule as the data show it: active = GI50 up to about 1.1 µM and inactive = higher.
Select the matching outcome among true (active), false (inactive)

>>> class_assignment("Cc1oc2c(C)c(O)c3c(c2c1C1(C)OCCO1)C(=O)C=C(Cl)C3=O")
"false"
>>> class_assignment("Cc1ccc(NC(=O)C(=O)C2C(=O)N(c3ccccc3)N=C2N)cc1C (configuration not stated)")
"false"
>>> class_assignment("Cc1cn(C2CC(OC(c3ccccc3)(c3ccccc3)c3ccccc3)C(COC(c3ccccc3)(c3ccccc3)c3ccccc3)O2)c(=O)[nH]c1=O (configuration not stated)")
"false"
>>> class_assignment("O=C1Nc2ccccc2/C1=N/NC(=S)N1CCCCCC1")
"false"
>>> class_assignment("CCOC(=O)/C=C/[C@H](O)[C@@H](O)/C=C/C(=O)OCC")
"false"

[Q] What is the recorded call for this molecule in the test? `C=CCN(N=O)C(=O)ON1C(=O)CCC1=O`
[A] true

[Q] What is the recorded call for this molecule in the test? CC(=O)OC12OC(C)(C3C(=O)N(c4ccccc4)C(=O)C31)N(c1ccccc1)C2=O (configuration not stated)
[A] false

[Q] What is the recorded call for this molecule in the test? `c1ccc(/N=C2\c3ccccc3C3=NCCCN32)cc1`
[A] false

###

# Tested on: SN12C
# assay name: NCI tumour cell line growth inhibition, 48 h
Active and inactive are the calls of the source. No stated cut-off is given here; in the data, active = GI50 up to about 1.1 µM and inactive = higher.
Measured GI50, listed per entry.

Notebook: `O=C(c1ccccc1)c1ccc2c(c1)NC(=O)c1ccccc1SSc1ccccc1C(=O)N2` , GI50 read as > 100 µM (inactive)

Notebook: `COc1cc(/C=C/C(=O)O)ccc1C(=O)O/C=C/c1ccccc1` , GI50 read as > 100 µM (inactive)

Notebook: `COC(=O)c1c(C#C[Si](C)(C)C)c(C#C[Si](C)(C)C)c(C#C[Si](C)(C)C)c(C#C[Si](C)(C)C)c1C(=O)OC` , GI50 read as > 100 µM (inactive)

Notebook: `CCNC(=O)c1cc(/C=C/c2ccc([N+](=O)[O-])o2)nc2ccccc12` , GI50 read as 15.3 µM (inactive)

Notebook: Cc1ccccc1C1=C(C(=O)Nc2ccc(Cl)c(Cl)c2)NC(=S)NC1N (stereo not given) , GI50 read as > 100 µM (inactive)

###

Measured GI50, listed per entry.
# Tested on: OVCAR-4
# assay name: NCI tumour cell line growth inhibition, 48 h
Activity calls are given as the source filed them. Cut-off read from the data, not from the text of the source: active = GI50 up to about 1.1 µM and inactive = higher.

>>> observed_result("CC(C)CNC(=O)O")
"> 100 µM (inactive)"
>>> observed_result("O=C(/N=N/c1ccc(Cl)cc1Cl)NNc1ccc(Cl)cc1Cl")
"13.3 µM (inactive)"
>>> observed_result("Cc1nc2c(C)ccc([N+](=O)[O-])c2c(NCCCN(C)C)c1C")
"> 100 µM (inactive)"

Notebook: `CCOc1cc2c(C(=O)CC)c(O)ccc2o1` , GI50 read as > 40.8 µM (inactive)

Notebook: `CCSc1nc2n(c(=S)n1)CCN2C` , GI50 read as 18.5 µM (inactive)

Notebook: `CC[P+]1(c2ccccc2)CCCCC1` , GI50 read as > 100 µM (inactive)

Notebook: COc1ccccc1N1C(=O)C2c3[nH]c4ccccc4c3C3CCC(C(C)(C)C)CC3C2C1=O (stereo not given) , GI50 read as > 100 µM (inactive)

Notebook: CC(=O)OC1COC(n2c3ccccc3c3ccc4c5ccccc5[nH]c4c32)C(OC(C)=O)C1OC(C)=O (stereo not given) , GI50 read as 37.6 µM (inactive)

Notebook: CC(C)=CCC/C(C)=C/Cc1cc(/C=C/c2cc(O)c(CC=C(C)C)c(O)c2)cc(O)c1O [MAPPAIN] , GI50 read as 1.94 µM (inactive)

Notebook: CCOC(=O)C1c2[nH]c3ccccc3c2CCN1C(=O)c1ccco1 (stereo not given) , GI50 read as > 10 µM (inactive)
